Origin of the recorded values: ChEMBL document CHEMBL2429848

Test: Antiglycation activity assessed as inhibition of advanced glycation end product formation after 7 days by spectrofluorometric analysis
Type: physicochemical
pIC50: −log10 of the molar value.
PROPERTY_LABEL: pIC50

Consider the following illustrative entries.
>>> observed_measurement("Oc1ccc([C@@]23Oc4cc(O)cc(O)c4[C@@H](c4c(cc(O)c5c4O[C@H](c4ccc(O)c(O)c4)[C@@H](O)C5)O2)[C@@H]3O)cc1")
4.85
>>> observed_measurement("N=C(N)NN")
3.02
>>> observed_measurement("OC[C@H]1O[C@@H](O[C@@H]2Cc3c(O)cc4c(c3O[C@H]2c2ccc(O)cc2)[C@@H]2c3c(O)cc(O)cc3O[C@](c3ccc(O)cc3)(O4)[C@H]2O)[C@H](O)[C@@H](O)[C@@H]1O")
4.49

1 = Oc1ccc([C@@H]2Oc3c(c(O)cc4c3[C@@H]3c5c(O)cc(O)cc5O[C@](c5ccc(O)cc5)(O4)[C@H]3O)C[C@H]2O)cc1
2 = Oc1cc(O)c2c(c1)O[C@H](c1ccc(O)c(O)c1)[C@H](O)C2 [(-)-EPICATECHIN]
Qu. Which one would you say has the larger pIC50 value: 1 , or 2 ? Your answer should be the label attached to the chosen record.
Ans. 2
(2: 4.87, 1: 4.46)
